Target: Epithelial discoidin domain-containing receptor 1 (Homo sapiens, UniProt Q08345)
Sequence (Q08345 whole entry, the tested form may be a part): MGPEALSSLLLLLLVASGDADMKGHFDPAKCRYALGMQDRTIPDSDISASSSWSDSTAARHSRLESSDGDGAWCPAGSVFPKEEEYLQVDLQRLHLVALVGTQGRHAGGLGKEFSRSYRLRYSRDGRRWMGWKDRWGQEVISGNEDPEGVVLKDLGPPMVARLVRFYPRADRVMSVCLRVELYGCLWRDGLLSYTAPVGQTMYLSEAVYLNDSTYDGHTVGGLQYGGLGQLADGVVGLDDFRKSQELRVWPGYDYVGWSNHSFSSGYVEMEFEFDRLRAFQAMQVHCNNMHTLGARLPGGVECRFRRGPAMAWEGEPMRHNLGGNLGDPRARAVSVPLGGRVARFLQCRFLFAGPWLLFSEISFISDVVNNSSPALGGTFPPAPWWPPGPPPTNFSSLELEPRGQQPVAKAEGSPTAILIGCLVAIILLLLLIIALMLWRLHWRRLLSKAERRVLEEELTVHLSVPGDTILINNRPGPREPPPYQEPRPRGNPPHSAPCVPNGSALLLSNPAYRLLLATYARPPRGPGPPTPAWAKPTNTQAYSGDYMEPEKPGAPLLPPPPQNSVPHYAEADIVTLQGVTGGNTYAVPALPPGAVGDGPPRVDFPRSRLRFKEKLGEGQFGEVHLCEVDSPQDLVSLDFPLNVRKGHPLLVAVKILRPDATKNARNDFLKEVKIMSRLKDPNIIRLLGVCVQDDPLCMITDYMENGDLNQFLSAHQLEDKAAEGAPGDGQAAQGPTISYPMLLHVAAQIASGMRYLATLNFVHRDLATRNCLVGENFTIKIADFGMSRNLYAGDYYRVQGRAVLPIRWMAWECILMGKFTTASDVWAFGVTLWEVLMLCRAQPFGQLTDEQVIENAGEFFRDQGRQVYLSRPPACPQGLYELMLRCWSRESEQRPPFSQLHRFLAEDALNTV
readout.label: IC50 (nM)
Field format: number, assumed nM, no unit text.

stdin: What value of IC50 has been reported for the following compound? `COc1cc(-c2cncc(-c3ccc(N4CCNCC4)cc3)c2C)cc(OC)c1OC`
stdout: 41

---

Target: Activin receptor type-1 (Homo sapiens)
Sequence (Q04771 whole entry): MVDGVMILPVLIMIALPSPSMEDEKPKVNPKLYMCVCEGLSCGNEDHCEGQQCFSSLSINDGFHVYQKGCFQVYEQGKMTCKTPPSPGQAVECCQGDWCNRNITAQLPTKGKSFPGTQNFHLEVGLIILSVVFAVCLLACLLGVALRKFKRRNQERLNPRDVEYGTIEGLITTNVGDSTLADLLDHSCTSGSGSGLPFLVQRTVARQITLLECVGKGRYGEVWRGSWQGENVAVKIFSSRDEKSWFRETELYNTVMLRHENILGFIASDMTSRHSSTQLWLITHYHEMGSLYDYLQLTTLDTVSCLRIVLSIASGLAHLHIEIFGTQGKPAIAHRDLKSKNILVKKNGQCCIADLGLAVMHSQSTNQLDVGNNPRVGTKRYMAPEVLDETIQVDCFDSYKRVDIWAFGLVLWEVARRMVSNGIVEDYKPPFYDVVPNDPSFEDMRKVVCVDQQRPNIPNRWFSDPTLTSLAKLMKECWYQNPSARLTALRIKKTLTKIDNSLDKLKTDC
Test: Inhibition of human ALK2 using casein as substrate in presence of [gamma-33P]-ATP by radiometric hotspot assay
pIC50: −log10 of the molar value.
Kind request: treat 8 as inclusive, so pIC50 at 8 or higher is class 1, anything lower is class 0.

stdin: hey, is pIC50 for this one >= 8? `COc1cc(-c2cncc(-c3ccc(N4CCNCC4)cc3)c2C2CC2)cc(OC)c1OC`
stdout: class 0

stdin: Hi, just wondering whether `COc1cc(-c2cncc(-c3ccc(N4CCNCC4)cc3)c2N)cc(OC)c1OC` shows pIC50 of 8 or higher.
stdout: class 0

stdin: Tell me whether pIC50 is at least 8 here: `COc1cc(-c2cncc(-c3ccc(N4CCN(C(=O)N(C)C)CC4)cc3)c2C)cc(OC)c1OC`
stdout: class 1

stdin: Is it the case that `COc1cc(-c2cncc(-c3ccc(N4CCNCC4)cc3)c2OC)cc(OC)c1OC` has pIC50 reaching or exceeding 8?
stdout: class 0

stdin: Identify whether the reported pIC50 of the following molecule is 8 or greater: `COc1cc(-c2cncc(-c3ccc(C4=CCNCC4)cc3)c2C)cc(OC)c1OC`
stdout: class 1

stdin: Assess whether reported pIC50 for `COc1cc(-c2cncc(-c3ccc(N4CCN(C(C)=O)CC4)cc3)c2C)cc(OC)c1OC` sits at 8 or higher.
stdout: class 0

stdin: Hello, I need to know if `COc1cc(-c2cncc(-c3ccc(N4CCNCC4)cc3)c2C(F)(F)F)cc(OC)c1OC` has measured pIC50 not below 8. Thanks!
stdout: class 0

stdin: Can `COc1cc(OC)cc(-c2cncc(-c3ccc(N4CCNCC4)cc3)c2C)c1` be said to have pIC50 at or above 8?
stdout: class 0

stdin: Decide: is the reported value of pIC50 for `CCc1c(-c2ccc(N3CCNCC3)cc2)cncc1-c1cc(OC)c(OC)c(OC)c1` equal to or greater than 8?
stdout: class 0

---

Target: UniProtKB Q04771
Assay: Competitive displacement of PBI-6908 from nanoluciferase-fused ALK2 (unknown origin) expressed in HEK293 cells incubated for 2 hrs by NanoBRET NanoGlo substrate based NanoBRET assay
Format: cell-based
readout.label: pIC50
Note on units: pIC50 is unitless, being -log10 of a concentration expressed in mol/L.

stdin: Bench note: what pIC50 did `COc1cc(-c2cncc(-c3ccc(CN4CCN(C)CC4)cc3)c2C)cc(OC)c1OC` show?
stdout: 6.97

stdin: # input molecule: `COc1cc(-c2cncc(-c3ccc(N4CCN(C(=O)N(C)C)CC4)cc3)c2C)cc(OC)c1OC` ; wanted: its pIC50
stdout: 6.83

stdin: So what's the measured pIC50 for this one? `COc1cc(-c2cncc(-c3ccc(N4CCN(CCF)CC4)cc3)c2C)cc(OC)c1OC`
stdout: 6.75

stdin: Which value of pIC50 has been reported for `COc1cc(-c2cncc(-c3ccc(N4CCNCC4)cc3)c2OC)cc(OC)c1OC` in the records?
stdout: 6.63

stdin: What value of measured pIC50 is listed for `COc1cc(-c2cncc(-c3ccc(N4CCN(C)CC4)cc3)c2C)cc(OC)c1OC` ?
stdout: 7.25

stdin: Could you tell me which pIC50 is on file for `COc1cc(-c2cncc(-c3ccc(N4C[C@@H](C)N[C@@H](C)C4)cc3)c2C)cc(OC)c1OC` ?
stdout: 7.40

stdin: Name the recorded pIC50 for `COc1cc(-c2cncc(-c3ccc(N4CCOCC4)cc3)c2C)cc(OC)c1OC` .
stdout: 6.48

stdin: Which pIC50 is reported for this molecule? `COc1cc(-c2cncc(-c3ccc(N4CCNCC4)cc3)c2C#N)cc(OC)c1OC`
stdout: 7.82

stdin: Value lookup for pIC50; key = `COc1cc(-c2cncc(-c3ccc(N4CCNCC4)cc3)c2F)cc(OC)c1OC`
stdout: 7.49

stdin: Need pIC50, item `COc1cc(-c2cncc(-c3ccc(N4CCN(C(C)C)CC4)cc3)c2C)cc(OC)c1OC`
stdout: 7.14

stdin: Which pIC50 is listed for `COc1cc(-c2cncc(-c3ccc(OC4CCN(C)CC4)cc3)c2C)cc(OC)c1OC` ?
stdout: 7.17

stdin: GET /values?readout=pIC50&item= `COc1cc(-c2cncc(-c3ccc(N4CCS(=O)(=O)CC4)cc3)c2C)cc(OC)c1OC`
stdout: 6.77

stdin: Quick check: pIC50 of `COc1cc(-c2cncc(-c3ccc(N4CCNCC4)cc3)c2C2CC2)cc(OC)c1OC` ?
stdout: 6.80

stdin: Item `COc1cc(-c2cncc(-c3ccc(N4CCNCC4)cc3)c2N)cc(OC)c1OC` has what recorded pIC50?
stdout: 6.59

stdin: # input molecule: `COc1cc(-c2cncc(-c3ccc(N4CCN(C(C)=O)CC4)cc3)c2C)cc(OC)c1OC` ; wanted: its pIC50
stdout: 6.57

stdin: Fill blank: measured pIC50 of the molecule `COc1cc(-c2cncc(-c3ccc(C4=CCN(C)CC4)cc3)c2C)cc(OC)c1OC` is ____.
stdout: 6.99

stdin: Any idea what pIC50 was measured for `COc1cc(-c2cncc(-c3ccc(N4CCCNCC4)cc3)c2C)cc(OC)c1OC` ?
stdout: 7.08

stdin: Reported pIC50, molecule `COc1cc(-c2cncc(-c3ccc(N4CCNCC4)cc3)c2C#N)cc(OC)c1F` : ____
stdout: 7.31

stdin: Tell me the measured pIC50 of `COc1cc(-c2cncc(-c3ccc(C4CCN(C)CC4)cc3)c2C)cc(OC)c1OC` , please.
stdout: 7.54

---

Test: Volume of distribution at steady state in CB17 SCID mouse at 2 mg/kg, iv after 0.25 to 24 hrs by LC/MS/MS method
Type: ADME, organism-based
Conditions: in vivo, read-out: Vdss
Can you tell me Vd for the items I'm about to list?
Give just the numeric value; L/kg need not be written.

stdin: May I ask what Vd has been recorded for `COc1cc(-c2cncc(-c3ccc(C4=CCNCC4)cc3)c2C)cc(OC)c1OC` ?
stdout: 1.66

stdin: For the compound shown here, `COc1cc(-c2cncc(-c3ccc(OC4CCNCC4)cc3)c2C)cc(OC)c1OC` , give the reported Vd.
stdout: 2.23

stdin: Which measured Vd value corresponds to `COc1cc(-c2cncc(-c3ccc(N4CCN(S(C)(=O)=O)CC4)cc3)c2C)cc(OC)c1OC` ?
stdout: 0.48

---

Target: TGF-beta receptor type-1 (Homo sapiens, UniProt P36897)
Sequence (P36897 whole entry): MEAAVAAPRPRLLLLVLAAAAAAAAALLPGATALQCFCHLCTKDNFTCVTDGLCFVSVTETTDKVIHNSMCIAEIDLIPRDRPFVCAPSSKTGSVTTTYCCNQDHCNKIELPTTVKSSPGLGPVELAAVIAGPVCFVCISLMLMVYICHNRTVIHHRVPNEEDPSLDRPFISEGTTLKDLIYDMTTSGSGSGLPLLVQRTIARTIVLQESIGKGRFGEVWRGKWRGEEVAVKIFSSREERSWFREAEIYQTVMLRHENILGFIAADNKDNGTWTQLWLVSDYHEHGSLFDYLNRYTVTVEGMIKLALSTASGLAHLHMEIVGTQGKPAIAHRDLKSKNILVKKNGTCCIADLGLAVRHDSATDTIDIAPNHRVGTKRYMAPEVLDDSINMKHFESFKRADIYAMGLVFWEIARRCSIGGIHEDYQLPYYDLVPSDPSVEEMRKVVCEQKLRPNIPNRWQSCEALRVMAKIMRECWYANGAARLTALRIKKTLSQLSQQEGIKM
Experiment: Inhibition of human ALK5 using casein as substrate in presence of [gamma-33P]-ATP by radiometric hotspot assay
Type: ADME
pIC50: −log10 of the molar value.
Exercise: state measured pIC50 for each of the compounds provided.

stdin: I would be grateful if you could share the reported pIC50 for `COc1cc(-c2cncc(-c3ccc(N4CCN(C(=O)N(C)C)CC4)cc3)c2C)cc(OC)c1OC` .
stdout: < 5.30

stdin: I would be grateful if you could share the reported pIC50 for `COc1cc(-c2cncc(-c3ccc(N4CCNCC4)cc3)c2C(F)(F)F)cc(OC)c1OC` .
stdout: < 5.30

stdin: GET /values?readout=pIC50&item= `CCc1c(-c2ccc(N3CCNCC3)cc2)cncc1-c1cc(OC)c(OC)c(OC)c1`
stdout: < 5.30
